target: Avi-KRAS G12D/Q25A (1-169) GppNHp/3xFLAG-PI3KCA (157-299) (Homo sapiens, UniProt P01116, G12D/Q25A); construct: 375 nM Avi-KRAS G12D/Q25A (1-169) GppNHp; assay: RAS-effector PPI HTRF disruption assay, PI3KCA-GppNHp-KRAS G12D/Q25A
Sequence (P01116 1-169 isoform P01116-2 G12D/Q25A): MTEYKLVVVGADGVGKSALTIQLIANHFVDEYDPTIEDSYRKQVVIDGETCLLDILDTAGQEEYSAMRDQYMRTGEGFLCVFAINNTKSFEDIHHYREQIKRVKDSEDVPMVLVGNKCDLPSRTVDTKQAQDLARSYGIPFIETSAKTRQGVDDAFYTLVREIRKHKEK
This listing pairs compounds with measured IC50.

Sample records with IC50:
*Q* Look up IC50: "N#Cc1c(N)sc2c(F)ccc(-c3c(C(F)(F)F)cc4c(O[C@@H]5CCN[C@@H]5CO)nc(OC[C@@]56CCCN5C[C@H](F)C6)nc4c3F)c12"
*A* 100 to 1000 nM

*Q* Which IC50 reading was recorded for the compound "N#Cc1c(N)sc2c(F)ccc(-c3ccc4c(O[C@@H]5CCNC5)nc(OC[C@@]56CCCN5C[C@H](F)C6)nc4c3F)c12" ?
*A* 100 to 1000 nM

*Q* Entry Nc1nc2c(-c3c(C(F)(F)F)cc4c(O[C@@H]5CCNC5)nc(OC[C@@]56CCCN5C[C@H](F)C6)nc4c3Cl)ccc(F)c2s1 (atropisomer, axis not shown) [Compound 11] : reported IC50 = ?
*A* > 10000 nM

*Q* Which IC50 reading was recorded for the compound C[C@@H]1CNCC1Oc1nc(OC[C@@]23CCCN2C[C@H](F)C3)nc2c(F)c(-c3ccc(F)c4sc(N)nc34)c(C(F)(F)F)cc12 (some centres unmarked) [Compound 15] ?
*A* 1000 to 10000 nM

*Q* Given the compound "N#Cc1c(N)sc2c(F)ccc(-c3cc4nc(OC[C@@]56CCCN5C[C@H](F)C6)nc(O[C@H]5CNC[C@@H]5F)c4cc3C(F)(F)F)c12" , what is its reported IC50?
*A* > 10000 nM

*Q* Item "N#Cc1c(N)sc2c(F)ccc(-c3c(Cl)cc4c(O[C@@H]5CNC[C@@H]5F)nc(OC[C@@]56CCCN5C[C@H](F)C6)nc4c3F)c12" has what recorded IC50?
*A* 1000 to 10000 nM

Further cases:
*Q* Given the entry Nc1nc2c(-c3c(C(F)(F)F)cc4c(O[C@H]5CN[C@@H](CO)C5)nc(OCC56CCCN5C[C@H](F)C6)nc4c3F)ccc(F)c2s1 (some centres unmarked) , report its measured IC50.
*A* 100 to 1000 nM

*Q* Look up IC50: C[C@H]1C[C@H](Oc2nc(OC[C@@]34CCCN3C[C@H](F)C4)nc3c(F)c(-c4ccc(F)c5sc(N)c(C#N)c45)c(Cl)cc23)CN1 [Compound 54]
*A* 100 to 1000 nM

====

target: Avi-KRAS G12D/Q25A (1-169) GppNHp/3xFLAG-PI3KCA (157-299) (Homo sapiens, UniProt P01116, G12D/Q25A); construct: 375 nM Avi-KRAS G12D/Q25A (1-169) GppNHp; test: RAS-effector PPI HTRF disruption assay, PI3KCA-GppNHp-KRAS G12D/Q25A
assay metric: IC50

*Q* Item "Nc1nc2c(-c3ncc4c(O[C@@H]5CCNC5)nc(OC[C@@]56CCCN5C[C@H](F)C6)nc4c3F)c(F)cc(F)c2s1" has what recorded IC50?
*A* > 10 µM

*Q* Would you mind telling me what IC50 value was observed for "Nc1nc2c(-c3cc4nc(OC[C@@]56CCCN5C[C@H](F)C6)nc(O[C@H]5CNC[C@@H]5F)c4cc3C(F)(F)F)ccc(F)c2s1" ?
*A* > 10 µM

*Q* Return reported IC50; argument: Nc1nc2c(-c3c(C(F)(F)F)cc4c(O[C@H]5CNC[C@@H]5F)nc(OC[C@@]56CCCN5C[C@H](F)C6)nc4c3F)ccc(F)c2s1 (atropisomer, axis not shown) [Compound 18]
*A* > 10 µM

Further cases:
*Q* Look at this compound and give its reported IC50. Nc1nc2c(-c3c(C(F)(F)F)cc4c(O[C@@H]5CCNC5)nc(OC[C@@]56CCCN5C[C@H](F)C6)nc4c3F)ccc(F)c2s1 (atropisomer, axis not shown) [Compound 5]
*A* > 10 µM

*Q* Can you look up the measured IC50 of N#Cc1c(N)sc2c(F)ccc(-c3c(Cl)cc4c(O[C@H]5CCN[C@@H]5CO)nc(OC[C@@]56CCCN5C[C@H](F)C6)nc4c3F)c12 (atropisomer, axis not shown) [Compound 75] for me?
*A* > 10 µM

*Q* Look at this compound and give its reported IC50. "N#Cc1c(N)sc2c(F)ccc(-c3c(C(F)(F)F)cc4c(O[C@@H]5CCNC5)nc(N5CC(N6CC7(CC7)C6)C5)nc4c3F)c12"
*A* > 10 µM

*Q* Look at this compound and give its reported IC50. Nc1nc2c(-c3c(C(F)(F)F)cc4c(OC5CC6CC[C@H]5N6)nc(OCC56CCCN5CCC6)nc4c3F)ccc(F)c2s1 (some centres unmarked)
*A* > 10 µM

*Q* I have this compound here, C[C@H]1NCCC1Oc1nc(OC[C@@]23CCCN2C[C@H](F)C3)nc2c(F)c(-c3ccc(F)c4sc(N)nc34)c(C(F)(F)F)cc12 (some centres unmarked) , and I need its recorded IC50.
*A* 0.1 to 1 µM

*Q* Give its IC50 value. Item: N#Cc1c(N)sc2c(F)ccc(-c3c(Cl)cc4c(O[C@H]5CCN[C@@H]5CO)nc(OC[C@@]56CCCN5C[C@H](F)C6)nc4c3F)c12 (atropisomer, axis not shown) [Compound 76]
*A* ≤ 0.1 µM

*Q* // IC50 lookup, key: "N#Cc1c(N)sc2c(F)ccc(-c3c(C(F)(F)F)cc4c(O[C@@H]5CCN[C@@H]5CF)nc(OC[C@@]56CCCN5C[C@H](F)C6)nc4c3F)c12"
*A* 1 to 10 µM

*Q* For the compound "Nc1nc2c(-c3cc4nc(OC[C@@]56CCCN5C[C@H](F)C6)nc(O[C@H]5CNC[C@H]5F)c4cc3C(F)(F)F)ccc(F)c2s1" , what IC50 is on record?
*A* > 10 µM

====

biological target: Avi-KRAS G12D (1-169) GppNHp/RAF1 RBD-3xFLAG (52-151) (Homo sapiens, UniProt P01116, G12D); construct: 100 nM Avi-KRAS G12D (1-169) GppNHp; experiment: RAS-effector PPI HTRF disruption assay, Raf1-GppNHp-KRAS G12D
Sequence (P01116 1-169 isoform P01116-2 G12D): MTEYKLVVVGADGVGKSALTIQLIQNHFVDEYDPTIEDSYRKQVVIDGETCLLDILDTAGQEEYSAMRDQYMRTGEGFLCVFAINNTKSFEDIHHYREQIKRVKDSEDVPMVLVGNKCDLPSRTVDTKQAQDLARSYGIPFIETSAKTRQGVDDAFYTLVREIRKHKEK
assay metric: IC50

*Q* // IC50 lookup, key: "N#Cc1c(N)sc2c(F)ccc(-c3ccc4c(O[C@@H]5CCNC5)nc(OC[C@@]56CCCN5C[C@H](F)C6)nc4c3F)c12"
*A* 100 to 1000 nM

*Q* Quick one: IC50 for C[C@H]1NCC[C@H]1Oc1nc(OCC23CCCN2C[C@H](F)C3)nc2c(F)c(-c3ccc(F)c4sc(N)nc34)c(C(F)(F)F)cc12 (stereo partly drawn) ?
*A* 100 to 1000 nM

*Q* Field request: IC50 | item: "N#Cc1c(N)sc2c(F)ccc(-c3c(C(F)(F)F)cc4c(OC5CCC6(CC5)CNC6)nc(OC[C@@]56CCCN5C[C@H](F)C6)nc4c3F)c12"
*A* ≤ 100 nM

*Q* # query: IC50 of entry "C[C@@H]1C[C@@H](Oc2nc(OC[C@@]34CCCN3C[C@H](F)C4)nc3c(F)c(-c4ccc(F)c5sc(N)c(C#N)c45)ccc23)CN1"
*A* 1000 to 10000 nM

---
*Q* Which value of IC50 has been reported for "N#Cc1c(N)sc2c(F)ccc(-c3c(C(F)(F)F)cc4c(O[C@@H]5CCN[C@@H]5CF)nc(OC[C@@]56CCCN5C[C@H](F)C6)nc4c3F)c12" in the records?
*A* 100 to 1000 nM

*Q* Which IC50 value belongs to "N#Cc1c(N)sc2c(F)ccc(-c3cc4nc(OC[C@@]56CCCN5C[C@H](F)C6)nc(O[C@@H]5CCNC5)c4nc3C(F)(F)F)c12" ?
*A* 1000 to 10000 nM

====

target: Avi-KRAS G12V (1-169) GppNHp/RAF1 RBD-3xFLAG (52-151) (Homo sapiens, UniProt P01116, G12V); construct: 50 nM Avi-KRAS G12V (1-169) GppNHp; test: RAS-effector PPI HTRF disruption assay, Raf1-GppNHp-KRAS G12V
Sequence (P01116 1-169 isoform P01116-2 G12V): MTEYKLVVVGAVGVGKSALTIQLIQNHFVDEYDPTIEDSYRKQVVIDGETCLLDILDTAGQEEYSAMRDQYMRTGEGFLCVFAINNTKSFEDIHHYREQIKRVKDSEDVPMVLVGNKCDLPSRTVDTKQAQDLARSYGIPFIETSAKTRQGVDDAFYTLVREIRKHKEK
Property: IC50; scope: individual molecules

*Q* What IC50 value was documented for this molecule, "C[C@H]1NCC[C@@H]1Oc1nc(OC[C@@]23CCCN2C[C@H](F)C3)nc2c(F)c(-c3ccc(F)c4sc(N)c(C#N)c34)c(Cl)cc12" ?
*A* 0.1 to 1 µM

*Q* Which IC50 is reported for this molecule? Nc1nc2c(-c3c(C(F)(F)F)cc4c(OC5CC6CC[C@H](C5)N6)nc(OCC56CCCN5CCC6)nc4c3F)ccc(F)c2s1 (stereo partly drawn)
*A* 1 to 10 µM

*Q* Need IC50 of N#Cc1c(N)sc2c(F)ccc(-c3c(C(F)(F)F)cc4c(O[C@@H]5CCC6(CNC6)C5)nc(OC[C@@]56CCCN5C[C@H](F)C6)nc4c3F)c12 (atropisomer, axis not shown) , thanks.
*A* 0.1 to 1 µM

*Q* IC50 for "N#Cc1c(N)sc2c(F)ccc(-c3c(C(F)(F)F)cc4c(O[C@@H]5CCN[C@@H]5CO)nc(OC[C@@]56CCCN5C[C@H](F)C6)nc4c3F)c12" ?
*A* 0.1 to 1 µM

*Q* # query: IC50 of entry C[C@H]1NCCC1Oc1nc(OC[C@@]23CCCN2C[C@H](F)C3)nc2c(F)c(-c3ccc(F)c4sc(N)nc34)c(C(F)(F)F)cc12 (stereo partly drawn)
*A* 1 to 10 µM

*Q* Requested field: IC50. Item: N#Cc1c(N)sc2c(F)ccc(-c3c(C(F)(F)F)cc4c(O[C@H]5CCC6(CNC6)C5)nc(OC[C@@]56CCCN5C[C@H](F)C6)nc4c3F)c12 (atropisomer, axis not shown) [Compound 78]
*A* > 10 µM

More entries:
*Q* Please give the measured IC50 for this molecule: Nc1nc2c(-c3c(C(F)(F)F)cc4c(O[C@H]5CNCC5(F)F)nc(OC[C@@]56CCCN5C[C@H](F)C6)nc4c3F)ccc(F)c2s1 (atropisomer, axis not shown) [Compound 29]
*A* > 10 µM

*Q* Please report the recorded IC50 for "N#Cc1c(N)sc2c(F)ccc(-c3c(C(F)(F)F)cc4c(O[C@@H]5CCNC5)nc(N5CC(N6CC7(CC7)C6)C5)nc4c3F)c12" .
*A* 1 to 10 µM

*Q* Request the reported IC50 associated with N#Cc1c(N)sc2c(F)ccc(-c3c(C(F)(F)F)cc4c(O[C@H]5CCC6(CNC6)C5)nc(OC[C@@]56CCCN5C[C@H](F)C6)nc4c3F)c12 (atropisomer, axis not shown) [Compound 79]
*A* ≤ 0.1 µM

*Q* What value of measured IC50 is listed for C[C@@H]1C[C@@H](Oc2nc(OC[C@@]34CCCN3C[C@H](F)C4)nc3c(F)c(-c4ccc(F)c5sc(N)nc45)c(C(F)(F)F)cc23)CN1 (atropisomer, axis not shown) [Compound 21] ?
*A* > 10 µM

*Q* Recorded IC50 for "COC[C@H]1NCC[C@H]1Oc1nc(OC[C@@]23CCCN2C[C@H](F)C3)nc2c(F)c(-c3ccc(F)c4sc(N)c(C#N)c34)ccc12" , please?
*A* > 10 µM

*Q* Endpoint output: IC50 of "N#Cc1c(N)sc2c(F)ccc(-c3ncc4c(O[C@H]5CNC[C@H]5F)nc(OC[C@@]56CCCN5C[C@H](F)C6)nc4c3F)c12" . Value?
*A* > 10 µM

*Q* Entry C[C@@H]1NCC[C@H]1Oc1nc(OC[C@@]23CCCN2C[C@H](F)C3)nc2c(F)c(-c3ccc(F)c4sc(N)nc34)c(C(F)(F)F)cc12 (atropisomer, axis not shown) [Compound 9] : reported IC50 = ?
*A* > 10 µM
